- experimental system: Voltage-dependent N-type calcium channel subunit alpha-1B (Homo sapiens, UniProt Q00975)
- Sequence (Q00975 whole entry): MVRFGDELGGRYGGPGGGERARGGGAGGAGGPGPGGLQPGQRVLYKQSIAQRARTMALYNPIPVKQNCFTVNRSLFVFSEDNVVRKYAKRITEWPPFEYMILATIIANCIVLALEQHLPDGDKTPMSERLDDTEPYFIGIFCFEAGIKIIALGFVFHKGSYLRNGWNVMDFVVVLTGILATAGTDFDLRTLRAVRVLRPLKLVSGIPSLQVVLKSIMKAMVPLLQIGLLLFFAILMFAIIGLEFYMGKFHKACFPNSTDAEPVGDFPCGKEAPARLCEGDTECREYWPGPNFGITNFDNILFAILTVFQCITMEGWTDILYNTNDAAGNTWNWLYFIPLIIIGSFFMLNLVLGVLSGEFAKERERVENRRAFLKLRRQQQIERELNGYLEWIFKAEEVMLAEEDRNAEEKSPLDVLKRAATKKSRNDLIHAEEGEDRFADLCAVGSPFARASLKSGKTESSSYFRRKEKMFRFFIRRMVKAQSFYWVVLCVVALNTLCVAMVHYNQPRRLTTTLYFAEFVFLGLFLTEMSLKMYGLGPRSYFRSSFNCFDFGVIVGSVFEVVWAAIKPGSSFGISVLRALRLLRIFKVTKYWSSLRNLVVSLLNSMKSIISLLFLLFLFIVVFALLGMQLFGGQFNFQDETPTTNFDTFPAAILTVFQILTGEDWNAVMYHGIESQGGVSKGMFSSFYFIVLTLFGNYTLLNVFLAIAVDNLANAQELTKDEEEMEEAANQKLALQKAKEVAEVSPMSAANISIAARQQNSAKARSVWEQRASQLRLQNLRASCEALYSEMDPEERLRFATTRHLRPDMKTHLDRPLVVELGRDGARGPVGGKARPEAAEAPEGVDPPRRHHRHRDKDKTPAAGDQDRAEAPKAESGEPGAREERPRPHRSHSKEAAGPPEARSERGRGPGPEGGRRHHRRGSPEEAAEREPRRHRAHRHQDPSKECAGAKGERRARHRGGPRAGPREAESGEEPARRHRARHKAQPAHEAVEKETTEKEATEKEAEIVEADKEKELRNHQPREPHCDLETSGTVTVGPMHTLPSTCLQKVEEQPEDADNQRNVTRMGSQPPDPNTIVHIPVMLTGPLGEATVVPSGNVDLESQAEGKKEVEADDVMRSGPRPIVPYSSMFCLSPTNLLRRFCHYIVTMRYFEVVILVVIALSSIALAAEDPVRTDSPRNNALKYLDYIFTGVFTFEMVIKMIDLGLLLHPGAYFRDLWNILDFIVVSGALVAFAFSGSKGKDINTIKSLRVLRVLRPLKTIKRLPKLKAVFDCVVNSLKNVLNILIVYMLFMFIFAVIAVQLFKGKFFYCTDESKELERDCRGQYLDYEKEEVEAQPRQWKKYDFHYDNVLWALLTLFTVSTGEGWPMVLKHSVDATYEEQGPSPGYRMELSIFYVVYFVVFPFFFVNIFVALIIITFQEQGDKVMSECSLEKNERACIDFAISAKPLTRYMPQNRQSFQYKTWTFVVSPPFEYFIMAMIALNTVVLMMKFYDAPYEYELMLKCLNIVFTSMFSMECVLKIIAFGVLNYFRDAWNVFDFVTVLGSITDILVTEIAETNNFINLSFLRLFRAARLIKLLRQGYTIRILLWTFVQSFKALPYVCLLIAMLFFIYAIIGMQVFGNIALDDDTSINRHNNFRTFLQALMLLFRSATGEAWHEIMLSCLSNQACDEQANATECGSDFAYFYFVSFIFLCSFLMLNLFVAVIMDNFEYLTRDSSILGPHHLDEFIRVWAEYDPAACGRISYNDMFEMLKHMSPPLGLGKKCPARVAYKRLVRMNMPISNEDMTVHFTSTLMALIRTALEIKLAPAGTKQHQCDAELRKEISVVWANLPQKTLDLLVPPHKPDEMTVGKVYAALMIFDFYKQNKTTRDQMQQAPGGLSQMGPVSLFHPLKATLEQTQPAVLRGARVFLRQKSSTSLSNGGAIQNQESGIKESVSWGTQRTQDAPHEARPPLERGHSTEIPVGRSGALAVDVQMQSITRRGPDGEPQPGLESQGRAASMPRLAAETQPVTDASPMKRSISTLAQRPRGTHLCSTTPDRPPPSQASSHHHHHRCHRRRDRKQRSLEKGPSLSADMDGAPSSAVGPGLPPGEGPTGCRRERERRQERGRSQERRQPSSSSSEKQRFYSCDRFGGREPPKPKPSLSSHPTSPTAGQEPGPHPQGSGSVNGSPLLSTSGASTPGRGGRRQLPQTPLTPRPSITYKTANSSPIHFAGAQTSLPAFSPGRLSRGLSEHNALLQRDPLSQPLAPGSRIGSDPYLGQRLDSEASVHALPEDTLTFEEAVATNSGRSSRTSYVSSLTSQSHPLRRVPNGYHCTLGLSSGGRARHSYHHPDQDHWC
- experiment: Inhibition of N-type voltage-dependent calcium channel CaV2.2 in human IMR32 cells assessed as inhibition of KCl-induced increase in intracellular calcium concentration preincubated for 4 to 5 mins before KCl challenge
measure name: IC50 (nM)
Form entry: value (nM) — number only.

Worked cases, answers included:
- compound: "COC(OC)C1=C(C(=O)OC/C=C/c2ccccc2)C(c2cccc(C(F)(F)F)c2)C(C(=O)O)C=N1 (stereo not drawn)"
  experimental system: "Voltage-dependent N-type calcium channel subunit alpha-1B (Homo sapiens, UniProt Q00975)"
  IC50 / nM: 1100
- compound: "O=C(OC/C=C/c1ccccc1)C1=CN=CC(C(=O)O)C1c1ccc(Cl)cc1 (stereo not drawn)"
  experimental system: "Voltage-dependent N-type calcium channel subunit alpha-1B (Homo sapiens, UniProt Q00975)"
  IC50 / nM: 1200

stdin: IC50 lookup needed for COc1c(Cl)cc(C2C(C(=O)OC/C=C/c3ccccc3)=C(C(OC)OC)N=CC2C(=O)O)cc1Cl (stereo not drawn) , thanks.
stdout: 1200

The reported numbers originate from BindingDB's records for doi:10.1016/j.bmcl.2012.04.051.
